Measured Counts/minute bound of individual entries
biological target: T1, recombinant human IL-6 (human, UniProt P05231 30-212, labeled with radioactive iodine); assay: radioiodinated IL-6 on peptide array; experiment D11-D57
T1 construct: Labeled probe in solution, added to wells that carry the synthetic peptides; also called IL-6 ligand; Interleukin-6
OUTCOME MEASURE: Counts/minute bound (counts/minute)

1) AFGTLLCIAIVLRFKKT [Peptide D31]; 24000
2) AIVLRFKKT [Peptide D39]; 4880
3) GGSLAFGTLL [Peptide D22]; 1000
4) VLRFKKT (also called VLRFKKT) [Peptide D41]; 2550
5) SLAFGTLLCIAIVLRFKKT [Peptide D29]; 24700
6) TLLCIAIVLRFKKT [Peptide D34]; 12400
7) GSLAFGTLLCIAIVLRFKKT [Peptide D28]; 26400
8) GGSLAFG (also called GGSLAFG) [Peptide D25]; 952
9) GGSLAFGTLLCIAIVLAFKKT (alanine-scan variant of the domain IV 21-mer) [Peptide D48]; 29400
